test: Inhibition of urease from Proteus mirabilis CCM 1944 using urea as substrate by Berthelot colorimetric assay; settings: read-out: Ki
Exercise: state measured pKi for each of the compounds provided.
Answers are plain numbers, as −log10 of the molar value.

>>> result_number("NCP(=O)(O)CN")
4.09
>>> result_number("CCCNCP(=O)(O)CN")
4.80
>>> result_number("CCCCCNCP(=O)(O)CN")
4.72
>>> result_number("CC(C)CNCP(=O)(O)CN")
3.38
>>> result_number("CCCCNCP(=O)(O)CN")
4.59

Batch lookup, pKi per entry.
1. CN(C)CP(=O)(O)CN
2. CNCP(=O)(O)CN
3. O=P(O)(CNCc1ccccc1)CNCc1ccccc1
4. CCCCCCCNCP(=O)(O)CN
5. CN(Cc1ccccc1)CP(=O)(O)CN
6. CN(C)CP(=O)(O)CN(C)C
7. CCCCCCNCP(=O)(O)CN

Result:
4.61
4.47
4.61
3.11
4.23
3.61
6.69

Provide reported pKi for each item, in the same order as listed.
1. CNCP(=O)(O)CNC
2. CC(=O)NO [ACETOHYDROXAMIC ACID]

Result:
1. 4.76
2. 5.24
